TEST TARGET: CDK2/cyclinE1 complex (Homo sapiens)
METHOD DESCRIPTION: In-vitro enzymatic inhibitory activity testing, CDK2 inhibition assay (Caliper EZ Reader II)
APPLIED CONDITIONS: CDK2/cyclinE1 0.5 nM, 180 min at 27° C.
Protocol: CDK12/CyclinK was diluted in an assay buffer (80 mM MES PH 6.5, 0.01% Tween 20, 50 ug/mL BSA, 10 mM MgCl2) to afford a corresponding enzyme solution with the 2.4 concentration. […] A reaction mixture was analyzed on Caliper EZ Reader II by electrophoretic separation of a fluorogenic substrate and a phosphorylated product. Data were calculated by using GraphPad Prism version 6.0, and IC50 values were adjusted and obtained by using a nonlinear regression model of a dose response curve.
// IC50 lookup, one value per entry

Examples with their reported IC50 follow.
MOLECULE: C[C@@H](CO)Nc1nccc(-c2c[nH]c3c(P(C)(C)=O)cccc23)n1 [Compound 186]
IC50: > 50 µM

MOLECULE: CP(C)(=O)c1cccc2c(-c3nc(NCC(O)C4CCC4)ncc3C(F)(F)F)c[nH]c12 (single isomer, unassigned) [Compound 139]
IC50: 5 to 50 µM

MOLECULE: CP(C)(=O)c1cccc2c(-c3nc(N[C@@H]4CCC45CNC5)ncc3C(F)(F)F)c[nH]c12 [Compound 80]
IC50: 0.2 to 5 µM

// next item, IC50 requested
Supply recorded IC50 for FC(F)(F)c1cnc(NC2COC23CNC3)nc1-c1c[nH]c2nc(N3CCOCC3)ccc12 (stereo not shown) [Compound 58] here. 5 to 50 µM
